Let's look at some variants and their measured protein stability index.
B1: SCNN1D (parent)
chain: RRPSPVLRHLELLDEFARENIDSL

Variants of: B1
Experiment: protein stability index of a GFP-peptide fusion (GPS, HEK-293T) (PSI 1-6); higher = more stable;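 further: lentivirally expressed fusions sorted by FACS into six bins by GFP to DsRed ratio, PSI derived from sequencing read proportions per bin multiplied by bin number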
Conditions: c terminus: a fixed tail appended
Answer field: number only, no words.

{"alteration": "H9K", "protein stability index": 3.28}
{"alteration": "L10V", "protein stability index": 3.41}

Now turn to the next variant.
In: What protein stability index value was documented for this variant, `R18H` ?
Out: 3.17
